Target: T1, Recombinant human OX40-His protein (human, UniProt P43489 29-214, limits assumed)
T1 construct: Recombinant antigen protein; also called recombinant human OX-40 protein; human OX-40 protein; not shown: His tag
T1 sequence (looked up): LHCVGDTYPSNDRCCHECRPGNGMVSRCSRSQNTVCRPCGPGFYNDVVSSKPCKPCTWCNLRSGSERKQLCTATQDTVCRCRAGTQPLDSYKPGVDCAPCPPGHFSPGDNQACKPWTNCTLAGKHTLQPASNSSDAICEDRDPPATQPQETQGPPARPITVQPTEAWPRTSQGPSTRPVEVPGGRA
Test: kinetic ranking (RU, 1:1 binding model), prokaryotically expressed antibody product as ligand, OX40-His as analyte
Listed here are binders together with their documented koff.
Give a bare numeral; the unit s⁻¹ is implied.

Solved entries (count: 2):
AH02923, prokaryotically expressed antibody product (back-mutation screening) (Fab, V domains shown) VH: QVQLVQSGAEVKKPGASVKVSCKASGYTFTDYSMHWVRQAPGQGLEWMGWISTETGEPTYADDFKGRFTFTLDTSASTAYLELSSLRSEDTAVYYCARVRPWYLAVWGQGTLVTVSS VL: DIQMTQSPSSLSASVGDRVTITCRASQDISNYLNWYQQKPGKAVKLLIYYTSRLYSGVPSRFSGSGSGTDYTFTISSLQPEDIATYYCQQANTLPLTFGGGTKLEIK = 0.00344
AH02917, prokaryotically expressed antibody product (back-mutation screening) (Fab, V domains shown) VH: QVQLVQSGAEVKKPGASVKVSCKASGYTFTDYSMHWVKQAPGQGLEWMGWISTETGEPTYADDFKGRFTITLDTSASTAYMELSSLRSEDTAVYFCARVRPWYLAVWGQGTLVTVSS VL: DIQMTQSPSSLSASVGDRVTITCRASQDISNYLNWYQQKPGKAVKLLIYYTSRLYSGVPSRFSGSGSGTDFTLTISSLQPEDIATYYCQQANTLPLTFGGGTKLEIK = 0.00396

Please find the next binder below.
Incoming: I'd like to know its koff. The binder in question is AH02916, prokaryotically expressed antibody product (back-mutation screening) (Fab, V domains shown) VH: QVQLVQSGAEVKKPGASVKVSCKASGYTFTDYSMHWVKQAPGQGLEWMGWISTETGEPTYADDFKGRVTITLDTSASTAYMELSSLRSEDTAVYYCARVRPWYLAVWGQGTLVTVSS VL: DIQMTQSPSSLSASVGDRVTITCRASQDISNYLNWYQQKPGKAVKLLIYYTSRLYSGVPSRFSGSGSGTDYTFTISSLQPEDIATYFCQQANTLPLTFGGGTKLEIK
Outgoing: 0.00384
